# Tested on: C. albicans SC5314 growth, alamar blue fluorescence
# METHOD: Candida albicans viability loss, MIC – SC5314, Alamar Blue fluorescence, dose response (AID 2695)
# CONDITION CONTEXT: 6.5 h
Records with an inconclusive call do not appear. The source made the active and inactive calls.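 Rule for the calls: active = a dose response, with MIC, the lowest growth-blocking dose, below the top tested dose; inconclusive = replicates split around the top dose, or self-fluorescent without titration; inactive = MIC above the top tested dose.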
I would appreciate it if you answered using one of these outcomes: active, inactive

>  <MOLECULE>
Cc1ccc(C(=O)c2no[n+]([O-])c2C(=O)c2ccc(C)cc2)cc1

>  <GROUP LABEL>
active

$$$$
>  <MOLECULE>
O=C(O)CN1C(=O)/C(=C\c2ccc(N3CCCCC3)o2)SC1=S

>  <GROUP LABEL>
inactive

$$$$
>  <MOLECULE>
COc1cc(/C=C2\SC(=S)N(NC(=O)c3ccncc3)C2=O)ccc1O

>  <GROUP LABEL>
inactive

$$$$

We next turn to a different molecule, shown below.
input: So what was the verdict on O=C(COC(=O)Cc1ccc(S(=O)(=O)N2CCOCC2)s1)NCc1ccc(Cl)cc1 in this test?
output: inactive

====

# Test system: C. albicans SC5314 growth, alamar blue fluorescence
# METHOD: Candida albicans viability loss, MIC – SC5314, Alamar Blue fluorescence, dose response (AID 2695)
# CONDITION CONTEXT: 6.5 h
Results filed as inconclusive are left out. Activity calls are given as the source filed them.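 How the source made its calls: active means a dose response, with MIC, the lowest growth-blocking dose, below the top tested dose; inconclusive means replicates split around the top dose, or self-fluorescent without titration; inactive means MIC above the top tested dose.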
API: response.call in active, inactive

For orientation, consider the following solved cases.
>  <COMPOUND>
COc1cc(/C=C2\SC(=S)N(NC(=O)c3cccnc3)C2=O)ccc1O

>  <SYSTEM>
C. albicans SC5314 growth, alamar blue fluorescence

>  <GROUP LABEL>
inactive

$$$$
>  <COMPOUND>
CC(=O)c1ccc(Sc2ccccc2)c([N+](=O)[O-])c1

>  <SYSTEM>
C. albicans SC5314 growth, alamar blue fluorescence

>  <GROUP LABEL>
active

$$$$
>  <COMPOUND>
CCOc1cc(/C=C2\N=C(SC(C)C(N)=O)N(c3ccc(OC(F)F)cc3)C2=O)ccc1O (configuration not stated)

>  <SYSTEM>
C. albicans SC5314 growth, alamar blue fluorescence

>  <GROUP LABEL>
inactive

$$$$

input: Test call for this compound, please: COc1cc(/C=C2/CC/C(=C/c3ccc(O)c(OC)c3)C2=O)ccc1O
output: inactive

input: Name the outcome recorded for COc1cc(/C=C2/SC(=S)N(Cc3ccccc3)C2=O)cc(OC)c1O in the assay.
output: active

input: // param item: Cc1ccc(-c2nn3c(C)nnc3s2)cc1NC(=O)CSc1ccc(Cl)cc1 ; yields the recorded call
output: inactive

input: Test call for this compound, please: O=C(Oc1c(-c2ccccc2)c(=O)n2c3c(cccc13)CC2)c1cccc([N+](=O)[O-])c1
output: inactive

input: What classification did Nc1ncnc2c1ncn2C1OC(CO)CC1O (configuration not stated) end up with in this test?
output: inactive

input: Each compound tested received a call. Report the one for Cc1ccc2nc(/C(C#N)=C/c3ccc([N+](=O)[O-])o3)[nH]c2c1 .
output: active

input: Recorded test call requested for Cc1ccc(Nc2c(-c3ccc(C)o3)nc3ncccn23)cc1
output: inactive

input: Any idea what this test logged for N#CC1(C#N)C2=C(CCCC2)NC(c2ccccc2)C1(C#N)C#N (configuration not stated) ?
output: inactive

input: Identify the outcome logged in this assay for the compound shown: N#C/C(=C/c1ccc([N+](=O)[O-])o1)c1nc2ccccc2[nH]1
output: active
